Target: T1, ARHGEF11, O15085
T1 sequence (O15085 42-136, limits assumed, looked up): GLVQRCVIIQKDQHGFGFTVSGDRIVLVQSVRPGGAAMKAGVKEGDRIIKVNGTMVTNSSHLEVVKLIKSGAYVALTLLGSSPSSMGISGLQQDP
Experiment: holdup assay
Set-up: key: below the threshold = too weak to quantify, mostly under pKd 3.1 to 4
Details: plain residues with an end cap or a label only (N-terminal biotin on a linker: ado-ado)
parameter measured: pKd

# binder, result
data = [
    ("PYPTADHMLA [JUP, P14923]", "below the threshold"),
    ("VKRNSKETVV [MARCHF3, Q86UD3]", 4.04),
    ("NNNVVKVDSV [MTNR1A, P48039]", "below the threshold"),
    ("RSSGGDDFWF [KCNV1, Q6PIU1]", "below the threshold"),
]
